The origin of these recorded values is patent US11793880B2.

Tested on: HL60/RV, MDR + AML
test_details: In vitro assays - tubulysin free drugs, CellTiter-Glo growth inhibition
Format: cell-based
run_parameters: Homo sapiens, HL-60, 96 h, Table 3; lantern-made analogues >85% purity, 96 hour exposure
Procedure: In vitro assays. Cells cultured in log-phase growth were seeded for 24 h in 96-well plates containing 150 μL RPMI 1640 supplemented with 20% FBS. […] After 96 h, growth inhibition was assessed by CellTiter-Glo® (Promega, Madison, WI) and luminescence was measured on a plate reader. […] In vitro assays—tubulysin free drugs. Cells were treated for 96 hours with tubulysin ether analogs (40-42) or tubulysin M (7), then assessed for viability as described in the methods. […]
Reported IC50 values are given for each entry in this list.
observation_type: IC50 (nM)

* CCO[C@H](C[C@H](C(C)C)N(C)C(=O)[C@H](CC1CC1)NC(=O)[C@H]1CCCCN1C)c1nc(C(=O)N[C@@H](Cc2ccccc2)C[C@H](C)C(=O)O)cs1 [Compound 212] | 810
* CCO[C@H](C[C@H](C(C)C)N(C)C(=O)[C@@H](NC(=O)[C@H]1CCCCN1C)[C@@H](C)OC(C)(C)C)c1nc(C(=O)N[C@@H](Cc2ccccc2)C[C@H](C)C(=O)O)cs1 [Compound 215] | 33
* CCO[C@H](C[C@H](C(C)C)N(C)C(=O)[C@@H](NC(=O)[C@H]1CCCCN1C)C(CC)CC)c1nc(C(=O)N[C@@H](Cc2ccccc2)C[C@H](C)C(=O)O)cs1 [Compound 203] | 604
* CCO[C@H](C[C@H](C(C)C)N(C)C(=O)C(NC(=O)[C@H]1CCCCN1C)C12CC(F)(C1)C2)c1nc(C(=O)N[C@@H](Cc2ccccc2)C[C@H](C)C(=O)O)cs1 (stereo partly shown) [Compound 211] | 224

----------
Reported IC50 values are given for each entry in this list.
Test system: Karpas299, ALCL
test_details: In vitro assays - tubulysin free drugs, CellTiter-Glo growth inhibition
Format: cell-based
run_parameters: Homo sapiens, KARPAS-299, 96 h, Table 2; free drug, 96 hour exposure
Protocol: In vitro assays. Cells cultured in log-phase growth were seeded for 24 h in 96-well plates containing 150 μL RPMI 1640 supplemented with 20% FBS. […] After 96 h, growth inhibition was assessed by CellTiter-Glo® (Promega, Madison, WI) and luminescence was measured on a plate reader. […] In vitro assays—tubulysin free drugs. Cells were treated for 96 hours with tubulysin ether analogs (40-42) or tubulysin M (7), then assessed for viability as described in the methods. […]
observation_type: IC50 (nM)

* CCC(=O)O[C@H](C[C@H](C(C)C)N(C)C(=O)[C@@H](NC(=O)[C@H]1CCCCN1C)[C@@H](C)CC)c1nc(C(=O)N[C@@H](Cc2ccccc2)C[C@H](C)C(=O)O)cs1 [Compound 133] | 0.02
* C=C(C)CO[C@H](C[C@H](C(C)C)N(C)C(=O)[C@@H](NC(=O)[C@H]1CCCCN1C)[C@@H](C)CC)c1nc(C(=O)N[C@@H](Cc2ccccc2)C[C@H](C)C(=O)O)cs1 [Compound 176] | 0.12
* CCCC(=O)O[C@H](C[C@H](C(C)C)N(C)C(=O)[C@@H](NC(=O)[C@H]1CCCCN1C)[C@@H](C)CC)c1nc(C(=O)N[C@@H](Cc2ccccc2)C[C@H](C)C(=O)O)cs1 [Compound 134] | 0.011
